Attribution: PubChem BioAssay (NCATS)

# experimentNotes: BET inhibitor-based combinations targeting novel dependencies in MECOM-rearranged (r) AML: MV-4-11 cell line (AID 2202233); note: nearly all actives have a fitted effect of over 45% in size
# experimentalParameters: MV-4-11 AML viability, CellTiter-Glo luminescence, 48 h; series mostly up to 46 µM
Records with an inconclusive call do not appear. The source made the active and inactive calls. Calls come from the whole dose curve; as a rule, active = well fitted inhibition curve with a large enough effect; inconclusive = small, poorly fitted or top-dose-only effect; inactive = no such curve, though single readings can be large or run the other way.
Please answer using one outcome listed in y = active, n = inactive

Please let me know the test result on file for CC(C)(O)CCc1ccc(OCc2cc(-c3cccc(OC(F)F)c3)c3ncccc3c2)cc1 . y

Please let me know the test result on file for CC(C)(C)C(=O)Oc1ccc(S(=O)(=O)Nc2ccccc2C(=O)NCC(=O)O)cc1 . n

Please let me know the test result on file for COC(=O)C1=C(C)NC(C)=C(C(=O)OCCCN2CCC(c3ccccc3)(c3ccccc3)CC2)C1c1cccc([N+](=O)[O-])c1 (stereo unspecified) . y

Please let me know the test result on file for Cc1cn(-c2cc(NC(=O)c3ccc(C)c(Nc4nccc(-c5cccnc5)n4)c3)cc(C(F)(F)F)c2)cn1 . y

Please let me know the test result on file for c1cc(-c2cnn3cc(-c4ccc(OCCN5CCCCC5)cc4)cnc23)ccn1 . y

Please let me know the test result on file for Nc1nc2c(ncn2COC(CO)CO)c(=O)[nH]1 . n

Please let me know the test result on file for COc1cc(C(=O)NC2CCN(C)CC2)c(F)cc1Nc1ncc2c(n1)N(C1CCCC1)CC(F)(F)C(=O)N2C . y

Please let me know the test result on file for c1ccc(CNc2nc(NCc3ccccc3)c3ccccc3n2)cc1 . y

Please let me know the test result on file for CS(=O)(=O)OCCCCOS(C)(=O)=O . n

Please let me know the test result on file for Cc1ccc(CN2CCNCC2)cc1NC(=O)CNc1ccc(F)c(F)c1 . n

Please let me know the test result on file for CCCN1CCN(c2ccc(C(=O)NC3(C(=O)NCC#N)CCCCC3)cc2)CC1 . n

Please let me know the test result on file for Cn1ncc2cc(-c3cnc(N)c(Cl)c3N3CCC4(CCNC4=O)CC3)ccc21 . y

Please let me know the test result on file for Oc1ccc2ccccc2c1SSc1c(O)ccc2ccccc12 . y

----------
# experimentNotes: BET inhibitor-based combinations targeting novel dependencies in MECOM-rearranged (r) AML: SET-2 cell line (AID 2202231);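 note: plate controls were DMSO treated cells for no effect and wells without cells for full effect; nearly all actives have a fitted effect of over 35% in size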
# experimentalParameters: SET-2 AML cells viability, CellTiter-Glo luminescence, 48 h; hits give low values, concentration not given here
Results filed as inconclusive are left out.
observedProperty: viability (%)
Report only the number, with the unit % understood.

Illustrative cases are given below, each with its answer.
compound=C[C@@H]1C[C@H]2[C@@H]3CCC4=CC(=O)C=C[C@]4(C)[C@@]3(F)[C@@H](O)C[C@]2(C)[C@@]1(O)C(=O)CO observedproperty=viability unitinfo=% quantitativereadout=112
compound=NCCS(=O)(=O)O observedproperty=viability unitinfo=% quantitativereadout=125
compound=Nc1nnc(-c2cccc(Cl)c2Cl)c(N)n1 observedproperty=viability unitinfo=% quantitativereadout=116

Sure, the documented viability for CC(C)OC(=O)C(C(=O)OC(C)C)=C1SC=CS1 is 105

Sure, the documented viability for CN1C(=O)C[C@H](C(=O)N[C@@H](Cc2cnc[nH]2)C(=O)N2CCC[C@@H]2C(N)=O)NC1=O is 98.4

Sure, the documented viability for Nc1cccc2c1C(=O)N(C1CCC(=O)NC1=O)C2=O (stereo not given) is 112

----------
# experimentNotes: BET inhibitor-based combinations targeting novel dependencies in MECOM-rearranged (r) AML: HNT-34 cell line (AID 2202234); note: nearly all actives have a fitted effect of over 35% in size
# experimentalParameters: HNT-34 AML viability, CellTiter-Glo luminescence, 48 h; series mostly up to 46 µM
Inconclusive results are not listed. Activity calls are given as the source filed them. The call rests on the fitted dose curve; in most records, active means well fitted inhibition curve with a large enough effect; inconclusive means small, poorly fitted or top-dose-only effect; inactive means no such curve, though single readings can be large or run the other way.
Please answer using one outcome listed in 1 = active, 0 = inactive

Please review the following examples before continuing.
compoundstructure=CCOC(=O)C=C[C@H](C[C@@H]1CCNC1=O)NC(=O)[C@@H](CC(=O)[C@@H](NC(=O)c1cc(C)on1)C(C)C)Cc1ccc(F)cc1 group=0
compoundstructure=c1ccc(-c2ccc(CNc3nc(-c4ccccn4)nnc3-c3ccccc3)cc2)cc1 group=1
compoundstructure=O=C(O)c1nc(=O)[nH]c(=O)[nH]1 group=0
compoundstructure=Clc1ccc2ncc(-c3cccc(NC4CNC4)n3)n2c1 group=0

Please find the next compound below.
Please let me know the test result on file for CCn1cc(C(=O)O)c(=O)c2cc(F)c(N3CCNCC3)cc21 . 0

----------
# assaySystem: Cellular tumor antigen p53 (Homo sapiens)
# experimentNotes: Primary qHTS for small molecule compounds that upregulate eGFP-tagged delta133p53alpha (in N-terminal) cells. (AID 2060322);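 note: cells pre-induced with doxycycline then dosed without doxycycline; 0% = DMSO vehicle and 100% = reference activator; nearly all actives have a fitted effect of over 75% in size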
# experimentalParameters: NCI-H358 eGFP-delta133p53alpha fluorescence, 24 h; hits give high values
Inconclusive results are not listed.
observedProperty: activation (%)
Report only the number, with the unit % understood.

Illustrative cases are given below, each with its answer.
compound=C=C[C@H]1[C@H](O[C@@H]2O[C@H](CO)[C@@H](O)[C@H](O)[C@H]2O)OC=C(C(=O)OC)[C@H]1CC=O unitinfo=% quantitativereadout=-32.8
compound=CCC(=O)NC[C@H](Cc1ccc(OCCc2nc(-c3ccccc3)oc2C)cc1)NC(C)=CC(=O)c1ccc(C(F)(F)F)cc1 unitinfo=% quantitativereadout=17.2
compound=COc1cc2ncc(-c3ccccc3)nc2cc1OC unitinfo=% quantitativereadout=-16.1
compound=CCOc1cc(C(C)(C)C)ccc1C1=N[C@@](C)(c2ccc(Cl)cc2)[C@@](C)(c2ccc(Cl)cc2)N1C(=O)N1CCN(CC(=O)N2CCOCC2)CC1 unitinfo=% quantitativereadout=35.5

Record CCn1c(=O)c2c(nc(C=Cc3ccc(OC)c(OC)c3)n2C)n(CC)c1=O has Cellular tumor antigen p53 (Homo sapiens) activation equal to -8.1

Record COCC(=O)Nc1c(I)c(C(=O)NCC(O)CO)c(I)c(C(=O)N(C)CC(O)CO)c1I (centres undefined) has Cellular tumor antigen p53 (Homo sapiens) activation equal to -4.18

Record C/C(=C\CO)CC/C=C(\C)C(=O)O[C@@H]1O[C@H](CO)[C@@H](O)[C@H](O)[C@H]1O has Cellular tumor antigen p53 (Homo sapiens) activation equal to -19.6

Record O=C(O)CNC(=O)C(CS)Cc1ccccc1 (centres undefined) has Cellular tumor antigen p53 (Homo sapiens) activation equal to -14.4

Record CCOC(=O)c1cc(C#N)c(N2CCC(C(=O)NS(=O)(=O)Cc3ccccc3)CC2)nc1C has Cellular tumor antigen p53 (Homo sapiens) activation equal to 5.67

----------
Below is a list of entries, each paired with its recorded activation value.
# assaySystem: Cellular tumor antigen p53 (Homo sapiens) (UniProt P04637)
# Sequence (P04637 whole entry, looked up): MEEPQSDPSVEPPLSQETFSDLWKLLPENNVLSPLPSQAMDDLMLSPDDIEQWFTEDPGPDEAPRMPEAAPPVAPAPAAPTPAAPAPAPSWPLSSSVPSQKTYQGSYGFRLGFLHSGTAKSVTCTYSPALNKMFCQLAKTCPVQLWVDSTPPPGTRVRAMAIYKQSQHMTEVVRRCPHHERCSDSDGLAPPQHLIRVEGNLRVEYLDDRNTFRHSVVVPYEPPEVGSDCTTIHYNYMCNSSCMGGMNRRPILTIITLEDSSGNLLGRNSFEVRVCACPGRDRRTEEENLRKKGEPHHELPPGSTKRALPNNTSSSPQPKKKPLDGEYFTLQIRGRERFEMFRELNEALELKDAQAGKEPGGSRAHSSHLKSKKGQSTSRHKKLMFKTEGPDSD
# experimentNotes: Primary qHTS for small molecule compounds that upregulate eGFP-tagged delta133p53alpha (in N-terminal) cells. (AID 2060322);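 note: cells pre-induced with doxycycline then dosed without doxycycline; 0% = DMSO vehicle and 100% = reference activator; nearly all actives have a fitted effect of over 75% in size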
# experimentalParameters: NCI-H358 eGFP-delta133p53alpha fluorescence, 24 h; hits give high values
Inconclusive results are not listed.
Report only the number, with the unit % understood.

Illustrative cases are given below, each with its answer.
compound=COc1ccc(C)c2sc(NC(=O)c3ccncc3)nc12 quantitativereadout=-15.7
compound=O=C(Cc1cccc(OC(F)(F)F)c1)Nc1ccc(CCCCc2nnc(NC(=O)Cc3ccccn3)s2)nn1 quantitativereadout=7.71
compound=O=[N+]([O-])c1ccc(/C=N\O)o1 quantitativereadout=11.9

Sure, the documented activation for C[C@@H]1CCN(C(=O)N2CCCC2)C[C@@H]1N(C)c1ncnc2[nH]ccc12 is -10.7

----------
# experimentNotes: BET inhibitor-based combinations targeting novel dependencies in MECOM-rearranged (r) AML: UCSD-AML1 cell line (AID 2202235);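 note: plate controls were DMSO vehicle wells for no effect and blank wells for full effect; nearly all actives have a fitted effect of over 40% in size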
# experimentalParameters: UCSD-AML1 AML cells viability, CellTiter-Glo, 48 h; series mostly up to 46 µM
Records with an inconclusive call do not appear. Calls of active or inactive are those of the source. The call rests on the fitted dose curve; in most records, active means well fitted inhibition curve with a large enough effect; inconclusive means small, poorly fitted or top-dose-only effect; inactive means no such curve, though single readings can be large or run the other way.
Please answer using one outcome listed in active, inactive

Please let me know the test result on file for Cc1nc2ccc(C(=O)N3CCC4(CC3)CC(=O)c3c(cnn3C(C)C)C4)cc2[nH]1 . inactive

----------
# experimentNotes: BET inhibitor-based combinations targeting novel dependencies in MECOM-rearranged (r) AML: AML-191 cell line (AID 2202236; note: nearly all actives have a fitted effect of over 35% in size; note: potency is the fitted concentration of half-maximal effect)
# experimentalParameters: AML-191 viability, CellTiter-Glo luminescence, 48 h; series mostly up to 46 µM
Inconclusive results are not listed. The source made the active and inactive calls. Calls follow the shape of the dose curve; as a rule, active = well fitted inhibition curve with a large enough effect; inconclusive = small, poorly fitted or top-dose-only effect; inactive = flat fitted curve, though single readings scatter.
observedProperty: Potency

compound="C[C@H](CCC(=O)O)[C@H]1CCC2C3C[C@H](O)[C@@H]4C[C@H](O)CC[C@]4(C)C3CC[C@@]21C (some centres undefined)" result=inactive
compound=C[C@H]1COc2c(N3CCN(C)CC3)c(F)cc3c(=O)c(C(=O)O)cn1c23 result=inactive
compound=CC(C)(CO)[C@@H](O)C(=O)NCCC(=O)O result=inactive
compound="Cc1cc2nc3c(=O)[nH]c(=O)nc-3n(CC(O)C(O)C(O)CO)c2cc1C (centres undefined)" result=inactive
compound=O=C(Nc1ccc(Oc2ccnc3[nH]ccc23)c(F)c1)c1cccn(-c2ccc(F)cc2)c1=O result="2350 nM (active)"
compound="CCN(c1cc(C#CCN2CCOCC2)cc(C(=O)NCc2c(C)cc(C)[nH]c2=O)c1C)C1CCC(N(C)CCOC)CC1 (centres undefined)" result=inactive
compound=Nc1ncnc2c1c(COc1cccc(Cl)c1)nn2C1CCOCC1 result=inactive
compound=CC(C)[C@H](N)C(=O)OCCOCn1cnc2c(=O)[nH]c(N)nc21 result=inactive

Next compound, please.
Sure, the documented Potency for c1ccc2c(Oc3nc(Nc4ccc(N5CCOCC5)cc4)c4ncn(C5CCCCC5)c4n3)cccc2c1 is inactive
